test system: OVCAR-5 ovarian; assay: NCI tumour cell line growth inhibition, 48 h
For each of the compounds below, state its TGI.

Prompt: What does the data say about its TGI? Entry: "COc1ccc(/C(Cl)=C(\CNc2ccccn2)c2ccccc2)cc1OC"
Response: > 100 µM

Prompt: Entry "CCN(CC)c1nc(=O)c(C(=O)C(C)(C)C)c(C(C)(C)C)o1" has what TGI?
Response: > 100 µM

Prompt: Look up TGI: O=C(OC(CNc1c(C(=O)c2ccccc2)c(=O)n(Cc2ccccc2)c(=O)n1Cc1ccccc1)CN1CCCCC1)c1ccccc1 (stereo not drawn)
Response: 63.4 µM

Prompt: What value of TGI has been recorded for this entry: "Cc1ccc(S(=O)(=O)c2ccsc2NC(=O)c2ccccc2)cc1"
Response: > 100 µM

Prompt: I have this compound here, "Cc1n(-c2ccccc2)c2c([n+]1Cc1ccc([N+](=O)[O-])cc1)C(=O)c1ccccc1C2=O" , and I need its recorded TGI.
Response: 3.46 µM

Prompt: GET /values?readout=TGI&item= "Cc1[nH]c2ccccc2c1C1=CC(=O)C=CC1=O"
Response: 32.8 µM

Prompt: Return reported TGI; argument: "COc1ccc(OC)c(-c2cc(C(=O)O)c3cc4ccccc4cc3n2)c1"
Response: > 100 µM

Prompt: I would be grateful if you could share the reported TGI for "COC(=O)C(CCSc1ccccc1)C(=O)OC" .
Response: > 100 µM

Prompt: Record request: TGI value, item "CCCC(=O)[O-].CCCC(=O)[O-].N.N.N.N.[Co+3].[O-][Cl+3]([O-])([O-])[O-]"
Response: > 100 µM

Prompt: Give the measured TGI of "COc1ccc2[nH]cc(CN3CCC(CO)(c4ccccc4)CC3)c2c1" .
Response: > 100 µM

Prompt: Item "C[N+]1(CCCC[N+]2(C)CCCCCCC2)CCCCCCC1" has what recorded TGI?
Response: > 100 µM

Prompt: Could you share which TGI value was measured for "Cc1cc2c(=O)c3ccccc3oc2c(C#N)c1C" ?
Response: > 100 µM

Prompt: What measured TGI goes with "O=C(Nn1c(-c2ccccc2)nc2ccccc2c1=O)c1ccc(O)cc1" ?
Response: > 100 µM

Prompt: Given CN1CC(S(=O)(=O)c2ccccc2)CC(S(=O)(=O)c2ccccc2)C1c1ccccc1 (stereo not drawn) , state its recorded TGI.
Response: 32.7 µM

Prompt: May I ask what TGI has been recorded for "O=[N+]([O-])c1ccc(NN=C2c3ccccc3Cc3ccccc32)c([N+](=O)[O-])c1" ?
Response: > 100 µM

Prompt: Given the compound COc1cc2c(cc1O)-c1c(OC)c(O)cc3c1C(C2)N(C)CC3 (stereo not drawn) , what is its reported TGI?
Response: > 100 µM

Prompt: Sample O=C(Nc1ccc(N2C(=O)CSC2c2cccs2)cc1)c1ccc(N2C(=O)CSC2c2cccs2)cc1 (stereo not drawn) — what was its TGI?
Response: > 100 µM

Prompt: Fill blank: measured TGI of the compound "Cc1ccc(-c2n[nH]c(=O)n2N2C(=O)C=CC2=O)cc1" is ____.
Response: > 100 µM

Prompt: Consider the compound shown here: C=CCCC(O)c1ccc(CCCCCCCCCCC)o1 (stereo not drawn) What is its recorded TGI?
Response: 35.9 µM

Prompt: Tell me the measured TGI of CC(=O)OC(C#N)CC(C)(C)/[N+]([O-])=[N+](\[O-])C(C)(C)CC(C#N)OC(C)=O (stereo not drawn) , please.
Response: 95.4 µM

Prompt: Need TGI of "CCOP(=O)(OCC)/C(C#N)=C/c1cc(O)ccc1O" , thanks.
Response: > 100 µM

Prompt: GET /values?readout=TGI&item= "O=C1c2cscc2C(=O)c2c(OCc3ccccc3)ccc(OCc3ccccc3)c21"
Response: > 100 µM

Prompt: Item under review: O=C1C(Cl)C(c2cccc(Br)c2)N1c1c(O)c(Cl)cc(Br)c1Cl (stereo not drawn) . Reported TGI?
Response: 56.5 µM

----------
system: SK-MEL-28 melanoma; assay: NCI tumour cell line growth inhibition, 48 h
measured.parameter: TGI

Prompt: Item: CCCCC1=CC1(C#N)[N+](=O)[O-] (stereo not drawn) Test system: SK-MEL-28 melanoma Read-out: TGI Value: ?
Response: > 100 µM

Prompt: Please tell me: TGI of "CCOP(=O)(OCC)/C(C#N)=C/c1cc(O)ccc1O" , system SK-MEL-28 melanoma?
Response: > 100 µM

Prompt: Could you share what TGI was measured for "CNC(=O)OCc1cc2ccncc2c2c1[nH]c1ccccc12" , tested on SK-MEL-28 melanoma?
Response: > 100 µM

Prompt: Reported TGI for SK-MEL-28 melanoma, given CCCC(=O)Nc1ncnc2c1ncn2C1OC2COP(=O)(O)OC2C1OC(=O)CCC (stereo not drawn) ?
Response: > 1000 µM

Prompt: Hi! What's the reported TGI for "[O]=[W](=[O])([OH])[OH]" on SK-MEL-28 melanoma?
Response: > 100 µM

Prompt: Under SK-MEL-28 melanoma: TGI value of "CCCCCCCCCCNC(=S)OCCCC" ?
Response: 72.2 µM

Prompt: Which measured TGI belongs to "O=c1c2ccccc2n2n1Cc1ccccc1C2" , tested on SK-MEL-28 melanoma?
Response: > 100 µM

Prompt: Hi! What's the reported TGI for CSC1CC2C(CC1(C)SC)C2(C)C (stereo not drawn) on SK-MEL-28 melanoma?
Response: > 100 µM

Prompt: API: value(readout= TGI, system= SK-MEL-28 melanoma, query= "O=[N+]([O-])c1cc(C(F)(F)F)ccc1S(=O)(=O)N[C@@H]1CCCC[C@H]1NS(=O)(=O)c1ccc(C(F)(F)F)cc1[N+](=O)[O-]" )
Response: 33.3 µM

Prompt: Record lookup: for SK-MEL-28 melanoma, what TGI belongs to COC(=O)c1c2c(cc3c1CC1(C3)Cc3ccc4c(c3C1=O)CCC4)CCC2 (stereo not drawn) ?
Response: > 100 µM

Prompt: Enter reported TGI observed with SK-MEL-28 melanoma for CNc1ccc(C(=O)CC(O)CCC(C)C2OC(=O)CC(O)CC(=O)CC(O)CC(O)CC(O)CC(O)CC3(O)CC(O)C(C(=O)NCCc4ccccn4)C(CC(OC4OC(C)C(O)C(N)C4O)/C=C/C=C/C=C/C=C\C=C/C=C/C=C/C2C)O3)cc1 (stereo not drawn)
Response: > 50 µM

Prompt: Give SK-MEL-28 melanoma TGI for "CCOC(=O)c1nc2cc(C(F)(F)F)ccc2nc1Oc1ccc(C(=O)OC)cc1"
Response: > 100 µM

Prompt: What TGI appears in the records for this compound with SK-MEL-28 melanoma? Nc1nc(NCC2(CO)CC(CCc3ccccc3)C2)cc(=O)[nH]1 (stereo not drawn)
Response: > 100 µM

Prompt: Kindly state the measured TGI obtained for COC1CC(n2ccc(=O)[nH]c2=O)OC1CO (stereo not drawn) with SK-MEL-28 melanoma.
Response: > 100 µM

Prompt: Find the measured TGI: item "COc1cc(C(=O)Nc2cc(O)c(C/C=C(\C)CCC=C(C)C)c(O)c2)cc2c1O[C@]1(C)CC[C@@H](O)C(C)(C)[C@H]1C2" , target or system SK-MEL-28 melanoma.
Response: 13.8 µM

Prompt: Record lookup: for SK-MEL-28 melanoma, what TGI belongs to Cc1ccc(C(O)/C(=N/N)c2nc3ccc([N+](=O)[O-])cc3[nH]c2=O)cc1 (stereo not drawn) ?
Response: > 100 µM

Prompt: Enter reported TGI observed with SK-MEL-28 melanoma for "COc1ccc(/C(Cl)=C(\CNc2ccccn2)c2ccccc2)cc1OC"
Response: > 100 µM

Prompt: // fetch SK-MEL-28 melanoma TGI for "O=C(Nc1ccc(Cl)cc1F)c1cc(Cl)ccc1O"
Response: 1.84 µM

Prompt: Can you look up TGI on SK-MEL-28 melanoma for "O=C(c1ccncc1)N1CCN(C2=NS(=O)(=O)c3ccccc3N2c2ccccc2)CC1" ?
Response: 38.7 µM

Prompt: State its TGI on SK-MEL-28 melanoma: "Cc1ccc(S(=O)(=O)c2ccsc2NC(=O)c2ccccc2)cc1"
Response: > 100 µM

Prompt: Look up TGI with SK-MEL-28 melanoma for this compound: COc1cc2c(cc1OC)C1(c3ccccc3)ON=C(c3ccccc3)N1CS2 (stereo not drawn)
Response: > 100 µM

Prompt: State its TGI on SK-MEL-28 melanoma: NCC(=O)NC(CO)C(=O)O (stereo not drawn)
Response: > 100 µM

Prompt: API: value(readout=TGI, system=SK-MEL-28 melanoma) for record "COc1cc(CCNc2nc3cc(N)cc(N)c3nc2-c2ccccc2)cc(OC)c1"
Response: 3.31 µM

Prompt: Which measured TGI belongs to "O=C1c2cscc2C(=O)c2c(OCc3ccccc3)ccc(OCc3ccccc3)c21" , tested on SK-MEL-28 melanoma?
Response: > 100 µM

Prompt: For SK-MEL-28 melanoma, provide TGI of Cc1csc(-c2ccc3c(c2)COC3(CCCN(C)C)c2ccc(F)cc2)c1 (stereo not drawn) please.
Response: 3.3 µM

Prompt: Item Nc1nc(Cl)nc2c1ncn2C1CCC(COP(=O)(O)OP(=O)(O)OP(=O)(O)O)O1 (stereo not drawn) with SK-MEL-28 melanoma - TGI?
Response: 54.1 µM

Prompt: Find the measured TGI: item "COc1cc(O)c2c(c1O)C(=O)c1cc(C)ncc1C2=O" , target or system SK-MEL-28 melanoma.
Response: > 50 µM

Prompt: So what TGI did Cc1ccc(C2SC(N)=Nc3c2c(C)nn3C(=O)c2ccc(Cl)cc2)cc1 (stereo not drawn) get with SK-MEL-28 melanoma?
Response: > 10 µM

Prompt: Provide value of TGI for this record tested with SK-MEL-28 melanoma: "Cc1nc2ccc(S(=O)(=O)Nc3ccccc3Cl)cc2c(=O)n1NC(=O)CNc1ccccc1Cl"
Response: > 100 µM

Prompt: Provide the documented TGI with SK-MEL-28 melanoma as the system for "O=c1cc(-c2ccccc2)nc2cc(-c3ccco3)[nH]n12"
Response: > 100 µM

Prompt: Can you look up TGI on SK-MEL-28 melanoma for "CCNC(=O)c1ccc2c(c1)nc(-c1ccc(Cl)cc1)n2-c1cc(C(C)(C)C)[nH]n1" ?
Response: 11.7 µM

Prompt: Requested read-out TGI, target or system SK-MEL-28 melanoma, entry "Cc1cccc2c1NC(=O)C2(c1ccc(O)cc1)c1ccc(O)cc1"
Response: 46.5 µM

Prompt: TGI of "COc1ccc(OC)c(-c2cc(C(=O)O)c3cc4ccccc4cc3n2)c1" on SK-MEL-28 melanoma?
Response: > 100 µM

Prompt: Form: Entry = "COC(=O)C(CCSc1ccccc1)C(=O)OC" | System = SK-MEL-28 melanoma | TGI = ____
Response: > 100 µM

Prompt: For SK-MEL-28 melanoma, provide TGI of "Cc1nc2sc(C(=O)Nc3cccc(Cl)c3C)c(N)c2cc1C(=O)c1ccccc1" please.
Response: > 50 µM

Prompt: Request body: readout TGI, system SK-MEL-28 melanoma, query "Cc1ccc(C)c(N2C(=O)C(=O)c3c(C)ccc(C)c32)c1" . Return the value.
Response: > 100 µM

Prompt: Observed TGI on SK-MEL-28 melanoma for "C=CCOCn1ccc(NC(=O)c2ccccc2)nc1=O" , please.
Response: > 100 µM

Prompt: Which measured TGI belongs to "Nc1ccc(-c2nc3ccccc3s2)cc1I" , tested on SK-MEL-28 melanoma?
Response: > 100 µM

Prompt: Param readout= TGI; system= SK-MEL-28 melanoma; entry= O=C(O)C1CCCCC1C(=O)Nc1nc2ccccc2[nH]1 (stereo not drawn) ; returns value.
Response: > 100 µM

Prompt: Find TGI (SK-MEL-28 melanoma) for the entry "CCN(CC)C(=O)N[C@@H](Cc1ccccc1)C(=O)NC"
Response: > 100 µM

Prompt: Lab request: please report TGI under test system SK-MEL-28 melanoma for "O=C(/C=C/c1ccc(O)cc1)c1cc(O)cc(O)c1"
Response: 42.7 µM

Prompt: Kindly state the measured TGI obtained for "Cc1cc(O)c(O)c(Oc2cc(C)cc(O)c2O)c1" with SK-MEL-28 melanoma.
Response: > 100 µM

Prompt: // fetch SK-MEL-28 melanoma TGI for COC(=O)C1=C(C)N(NC(=O)c2cccc(Cl)c2)C(C)(O)C12CCOC2=O (stereo not drawn)
Response: > 100 µM
